# Tested on: Staphylococcus aureus S13E
# test: standard agar-dilution assay (MIC)
# Assay type: cell-based
# assaySetup: unit assumed
measuredParameter: MIC (µg/mL)

[[record]]
molecule = "CCC1OC(=O)CC(O)C(C)C(OC2OC(C)C(OC3CC(C)(O)C(O)C(C)O3)C(N(C)C)C2O)C(CC=O)CC(C)C(=O)C=CC(C)=CC1COC(=O)NCCN1CCOCC1 (stereo not drawn) [Compound 29]"
measuredparameter = "MIC"
unitssymbol = "µg/mL"
measurednumber = 2

[[record]]
molecule = "CCC1OC(=O)CC(O)C(C)C(OC2OC(C)C(OC3CC(C)(O)C(O)C(C)O3)C(N(C)C)C2OC(C)=O)C(CC=O)CC(C)C(=O)C=CC(C)=CC1COC(=O)Cc1ccccc1 (stereo not drawn) [Compound 9, 2'-O-Acetyl-23-O-phenylacetyl-DMT]"
measuredparameter = "MIC"
unitssymbol = "µg/mL"
measurednumber = 0.5

[[record]]
molecule = "CCCCCCCC(=O)OCC1C=C(C)C=CC(=O)C(C)CC(CC=O)C(OC2OC(C)C(OC3CC(C)(O)C(O)C(C)O3)C(N(C)C)C2OC(C)=O)C(C)C(O)CC(=O)OC1CC (stereo not drawn) [Compound 7]"
measuredparameter = "MIC"
unitssymbol = "µg/mL"
measurednumber = 2


###

# Test system: Staphylococcus aureus V41
# test: standard agar-dilution assay (MIC)
# Type: cell-based
# assaySetup: Staphylococcus aureus V41, penicillin-resistant strain, unit assumed
measuredParameter: MIC (µg/mL)

[[record]]
compound = "CCC(=O)OC1C(OC2C(CC=O)CC(C)C(=O)C=CC(C)=CC(COC(C)=O)C(CC)OC(=O)CC(O)C2C)OC(C)C(OC2CC(C)(O)C(O)C(C)O2)C1N(C)C (stereo not drawn) [Compound 6, 23-O-Acetyl-2'-O-propionyl-DMT]"
tgt = "Staphylococcus aureus V41"
measurednumber = 0.5

[[record]]
compound = "CCC(=O)OCC1C=C(C)C=CC(=O)C(C)CC(CC=O)C(OC2OC(C)C(OC3CC(C)(O)C(O)C(C)O3)C(N(C)C)C2O)C(C)C(O)CC(=O)OC1CC (stereo not drawn) [Compound 4, 23-O-Propionyl-DMT]"
tgt = "Staphylococcus aureus V41"
measurednumber = 0.5

[[record]]
compound = "CCC1OC(=O)CC(O)C(C)C(OC2OC(C)C(OC3CC(C)(O)C(O)C(C)O3)C(N(C)C)C2OC(C)=O)C(CC=O)CC(C)C(=O)C=CC(C)=CC1COC(=O)C(Cl)(Cl)Cl (stereo not drawn) [Compound 16]"
tgt = "Staphylococcus aureus V41"
measurednumber = 2

[[record]]
compound = "CCC1OC(=O)CC(O)C(C)C(OC2OC(C)C(OC3CC(C)(O)C(O)C(C)O3)C(N(C)C)C2O)C(CC=O)CC(C)C(=O)C=CC(C)=CC1COC(=O)Cc1ccccc1 (stereo not drawn) [Compound 10, 23-O-Phenylacetyl-DMT]"
tgt = "Staphylococcus aureus V41"
measurednumber = 0.5

[[record]]
compound = "CCCCCCCC(=O)OCC1C=C(C)C=CC(=O)C(C)CC(CC=O)C(OC2OC(C)C(OC3CC(C)(O)C(O)C(C)O3)C(N(C)C)C2OC(C)=O)C(C)C(O)CC(=O)OC1CC (stereo not drawn) [Compound 7]"
tgt = "Staphylococcus aureus V41"
measurednumber = 2

[[record]]
compound = "CCC1OC(=O)CC(O)C(C)C(OC2OC(C)C(OC3CC(C)(O)C(O)C(C)O3)C(N(C)C)C2O)C(CC=O)CC(C)C(=O)C=CC(C)=CC1COC(=O)NCCN1CCOCC1 (stereo not drawn) [Compound 29]"
tgt = "Staphylococcus aureus V41"
measurednumber = 1

[[record]]
compound = "CCC1OC(=O)CC(O)C(C)C(OC2OC(C)C(OC3CC(C)(O)C(O)C(C)O3)C(N(C)C)C2OC(C)=O)C(CC=O)CC(C)C(=O)C=CC(C)=CC1COC(C)=O (stereo not drawn) [Compound 1, 2',23-Di-O-Acetyl-DMT]"
tgt = "Staphylococcus aureus V41"
measurednumber = 1

[[record]]
compound = "CCC1OC(=O)CC(O)C(C)C(OC2OC(C)C(OC3CC(C)(O)C(O)C(C)O3)C(N(C)C)C2O)C(CC=O)CC(C)C(=O)C=CC(C)=CC1COC(=O)NCCCCCCCCN (stereo not drawn) [Compound 27]"
tgt = "Staphylococcus aureus V41"
measurednumber = 2

[[record]]
compound = "CCC1OC(=O)CC(O)C(C)C(OC2OC(C)C(OC3CC(C)(O)C(O)C(C)O3)C(N(C)C)C2O)C(CC=O)CC(C)C(=O)C=CC(C)=CC1COC(=O)n1ccnc1 (stereo not drawn) [Compound 22]"
tgt = "Staphylococcus aureus V41"
measurednumber = 1

